Reported values: MIC for Escherichia coli ATCC 25922, one per item.

Compound	Measurement Name	Result
Br.Fc1ccc(CNCCCCOc2cccc3[nH]c4ccccc4c23)cc1 [Compound 8]	MIC	> 64 µg/mL
Fc1cccc(CNCCCCOc2cccc3[nH]c4ccccc4c23)c1 [Compound 2]	MIC	> 64 µg/mL
C[C@@H](NCCCCOc1cccc2[nH]c3ccccc3c12)c1ccccc1 [Compound 4]	MIC	> 64 µg/mL
Fc1ccc(CNCCCCOc2cccc3[nH]c4ccccc4c23)cc1 [Compound 3]	MIC	> 64 µg/mL
Br.Fc1ccccc1CNCCCCOc1cccc2[nH]c3ccccc3c12 [Compound 6]	MIC	> 64 µg/mL
Br.C[C@@H](NCCCCOc1cccc2[nH]c3ccccc3c12)c1ccccc1 [Compound 9]	MIC	> 64 µg/mL

Measured MIC, C[C@H](NCCCCOc1cccc2[nH]c3ccccc3c12)c1ccccc1 [Compound 5] : > 64 µg/mL

The reported value for Br.Fc1cccc(CNCCCCOc2cccc3[nH]c4ccccc4c23)c1 [Compound 7] in terms of MIC is > 64 µg/mL

Value of measured MIC for the entry Br.C[C@H](NCCCCOc1cccc2[nH]c3ccccc3c12)c1ccccc1 [Compound 10] : > 64 µg/mL

Notebook: Fc1ccccc1CNCCCCOc1cccc2[nH]c3ccccc3c12 [Compound 1] , MIC read as > 64 µg/mL

----------
melting point: recorded values

Check out these entries, answers already filled in.
Br.Fc1ccccc1CNCCCCOc1cccc2[nH]c3ccccc3c12 180 to 182 °C
Fc1ccccc1CNCCCCOc1cccc2[nH]c3ccccc3c12 179 to 181 °C
Br.Fc1ccc(CNCCCCOc2cccc3[nH]c4ccccc4c23)cc1 203 to 206 °C
Br.C[C@@H](NCCCCOc1cccc2[nH]c3ccccc3c12)c1ccccc1 92 to 96 °C

Please look at the following compound next.
Noted for `Br.Fc1cccc(CNCCCCOc2cccc3[nH]c4ccccc4c23)c1` : its melting point reads 181 to 183 °C

----------
System: Staphylococcus aureus ATCC 29213
Experiment: Broth microdilution (CLSI), growth, MIC and MBC
Format: cell-based
Conditions: S. aureus (MBC)
Here, each record is paired with measured MBC/MFC data.
Output spec: scalar in µg/mL, unitless text.

Example cases with answers are listed next.
Molecule	Measurement Name	Recorded Number
Br.Fc1cccc(CNCCCCOc2cccc3[nH]c4ccccc4c23)c1 [Compound 7]	MBC/MFC	64
Br.Fc1ccc(CNCCCCOc2cccc3[nH]c4ccccc4c23)cc1 [Compound 8]	MBC/MFC	64
C[C@H](NCCCCOc1cccc2[nH]c3ccccc3c12)c1ccccc1 [Compound 5]	MBC/MFC	64
Br.C[C@@H](NCCCCOc1cccc2[nH]c3ccccc3c12)c1ccccc1 [Compound 9]	MBC/MFC	64
Br.C[C@H](NCCCCOc1cccc2[nH]c3ccccc3c12)c1ccccc1 [Compound 10]	MBC/MFC	64

# MBC/MFC measured on Staphylococcus aureus ATCC 29213 for item Fc1cccc(CNCCCCOc2cccc3[nH]c4ccccc4c23)c1 [Compound 2] = 32

Entry C[C@@H](NCCCCOc1cccc2[nH]c3ccccc3c12)c1ccccc1 [Compound 4] , tested on Staphylococcus aureus ATCC 29213, has a reported MBC/MFC of 32
